biological target: mUSP18 (Mus musculus, UniProt Q9WTV6); construct: (46-368); His-tag (N); made in house; assay: High-throughput screening, ISG15ct-RhoMP, single dose 1.25 µM; type: biochemical, murine; details: mUSP18 %inhibition; carboxylic acid (CA) building block alone; read-out: %inh CA only
Sequence (Q9WTV6 46-368): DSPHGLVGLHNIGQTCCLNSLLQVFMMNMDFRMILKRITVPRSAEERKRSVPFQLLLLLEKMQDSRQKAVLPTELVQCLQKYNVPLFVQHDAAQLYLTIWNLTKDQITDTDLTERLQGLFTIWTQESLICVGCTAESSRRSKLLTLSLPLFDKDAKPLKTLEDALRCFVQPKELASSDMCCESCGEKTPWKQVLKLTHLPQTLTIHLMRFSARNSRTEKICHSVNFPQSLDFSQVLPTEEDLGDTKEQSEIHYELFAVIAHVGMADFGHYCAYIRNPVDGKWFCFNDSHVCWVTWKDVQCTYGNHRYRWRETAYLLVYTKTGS
experimental.readout: inhibition at 1.25 µM (%)

# count of solved cases: 4
- smiles.data: "O=C(O)c1csc(-c2ncccn2)n1"
  unit.info: "%"
  endpoint.value: 12.3
- smiles.data: "O=C(O)CC1CCN(c2ccc(C(F)(F)F)cn2)CC1"
  unit.info: "%"
  endpoint.value: 0.78
- smiles.data: "Cn1cc(-c2cc(C(=O)O)n[nH]2)cn1"
  unit.info: "%"
  endpoint.value: -7.23
- smiles.data: "Cc1noc(-c2ccc(C(=O)O)cc2)n1"
  unit.info: "%"
  endpoint.value: -3.57

1. O=C(O)CC1(n2cccc2)CCCCC1
2. O=C(O)C1CCN(c2ccc(=O)[nH]n2)CC1
Prompt: I'd appreciate it if you could identify which of 1 and 2 has the greater inhibition at 1.25 µM. Your answer should be the label attached to the chosen record.
Completion: 2
(2: 8.54%, 1: 3.52%)
